TARGET_OR_SYSTEM: T1, biotinylated human plasma Kallikrein (human, UniProt P03952 20-638, biotinylated)
T1 construct: also called Biotinylated hPK
T1 sequence (P03952 20-638 limits assumed): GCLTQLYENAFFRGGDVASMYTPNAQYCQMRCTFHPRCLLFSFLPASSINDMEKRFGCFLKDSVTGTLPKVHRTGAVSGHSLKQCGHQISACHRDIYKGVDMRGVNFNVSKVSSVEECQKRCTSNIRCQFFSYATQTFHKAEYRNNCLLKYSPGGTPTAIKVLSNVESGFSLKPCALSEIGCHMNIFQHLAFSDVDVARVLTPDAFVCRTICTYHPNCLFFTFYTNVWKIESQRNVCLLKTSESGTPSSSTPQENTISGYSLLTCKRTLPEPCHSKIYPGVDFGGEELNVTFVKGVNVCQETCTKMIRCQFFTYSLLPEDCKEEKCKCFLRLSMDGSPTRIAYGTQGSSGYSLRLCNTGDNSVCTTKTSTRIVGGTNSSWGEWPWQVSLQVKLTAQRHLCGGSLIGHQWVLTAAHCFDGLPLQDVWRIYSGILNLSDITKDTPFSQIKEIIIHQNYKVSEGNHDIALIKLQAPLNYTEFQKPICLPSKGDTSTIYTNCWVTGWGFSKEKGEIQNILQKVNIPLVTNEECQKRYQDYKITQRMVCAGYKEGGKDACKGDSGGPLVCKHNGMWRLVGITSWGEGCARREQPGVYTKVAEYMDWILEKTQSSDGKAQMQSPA
ASSAY_PROTOCOL: phage binding assay, signal:background
Numbered stars: 1 amine (or outer) side, 2 acyl side, 3 side chain; on linkers, the order of the positions; unused ones are H or OH. Bridge positions count the residues as written; N and C are the ends. Ends that are not written are not given here. TBMB = c1c(C[*:1])cc(C[*:3])cc1C[*:2]
Binding assay signal values by entry
EXPERIMENTAL_ENDPOINT: Binding assay signal

> print(dat)
                                     binder  measured
1  CAWPARCTHTDFC (linker 1-7-13 via TBMB (inferred)) [SEQ ID NO 128]        80
2  CSWPARCVHQDMC (linker 1-7-13 via TBMB (inferred)) [SEQ ID NO 155]        61
3  CPWPARCTHQNLC (linker 1-7-13 via TBMB (inferred)) [SEQ ID NO 143]        69
4  CSWPARCTHSDLC (linker 1-7-13 via TBMB) [SEQ ID NO 161]        59
5  CSWPARCLHTELC (linker 1-7-13 via TBMB (inferred)) [SEQ ID NO 146]        68
6  CTWPARCTHTDLC (linker 1-7-13 via TBMB (inferred)) [SEQ ID NO 123]        88
